These molecules were tested on UniProt P20839; IC50 is the recorded read-out.
Sequence (P20839 whole entry): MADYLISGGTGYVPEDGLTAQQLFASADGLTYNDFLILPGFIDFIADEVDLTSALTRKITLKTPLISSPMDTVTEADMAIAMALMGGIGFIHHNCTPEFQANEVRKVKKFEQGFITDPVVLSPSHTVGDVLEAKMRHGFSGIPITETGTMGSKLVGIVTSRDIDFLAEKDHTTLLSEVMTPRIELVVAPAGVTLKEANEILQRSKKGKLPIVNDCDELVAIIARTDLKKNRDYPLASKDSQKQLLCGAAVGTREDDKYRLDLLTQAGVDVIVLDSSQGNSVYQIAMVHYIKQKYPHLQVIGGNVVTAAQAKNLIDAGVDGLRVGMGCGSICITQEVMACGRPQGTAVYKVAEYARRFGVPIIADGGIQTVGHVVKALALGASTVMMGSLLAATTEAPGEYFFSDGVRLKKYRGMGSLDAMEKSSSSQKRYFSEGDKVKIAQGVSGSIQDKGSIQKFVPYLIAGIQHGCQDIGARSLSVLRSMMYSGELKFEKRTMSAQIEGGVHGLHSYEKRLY

Prompt: Entry O=c1[nH]c2ccc(Oc3ccc4[nH]c(=O)c(=O)[nH]c4c3)cc2[nH]c1=O [Tetrahydroquinoxalin analog, J] has what IC50?
Response: > 50 µM

Prompt: What do you get for O=C(N/C=N\c1cccnc1)C1COc2ccccc2O1 (stereo not drawn) ?
Response: > 500 µM

Prompt: What do you get for "COC(=O)c1c(C)c(=O)[nH]c2ccccc12" ?
Response: > 25 µM

###

These molecules were tested on UniProt P12268; IC50 is the recorded read-out.

* O=c1[nH]c2ccc(Oc3ccc4[nH]c(=O)c(=O)[nH]c4c3)cc2[nH]c1=O [Tetrahydroquinoxalin analog, J] | > 50 µM
* CC(Oc1ccccc1)C(=O)Nc1ccc(Cl)cc1 (stereo not drawn) | > 50 µM

Next molecule, IC50 to be filled in.
Prompt: Entry O=C(N/C=N\c1cccnc1)C1COc2ccccc2O1 (stereo not drawn) has what IC50?
Response: > 500 µM

###

# system-name: Inosine-5-monophosphate dehydrogenase (Cryptosporidium parvum, UniProt Q5CPK7)
# Sequence (Q5CPK7 whole entry): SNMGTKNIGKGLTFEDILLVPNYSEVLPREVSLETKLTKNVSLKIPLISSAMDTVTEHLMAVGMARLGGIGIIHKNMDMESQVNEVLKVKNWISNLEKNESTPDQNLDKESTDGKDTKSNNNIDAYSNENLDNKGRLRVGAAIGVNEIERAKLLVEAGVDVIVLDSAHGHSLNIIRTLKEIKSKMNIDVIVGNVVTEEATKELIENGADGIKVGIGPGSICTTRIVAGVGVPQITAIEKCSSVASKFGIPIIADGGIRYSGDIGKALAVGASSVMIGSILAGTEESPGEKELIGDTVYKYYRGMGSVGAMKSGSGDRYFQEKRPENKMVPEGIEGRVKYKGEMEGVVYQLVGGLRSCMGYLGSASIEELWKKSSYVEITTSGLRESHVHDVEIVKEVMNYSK
experimental-endpoint: pIC50
Note on units: pIC50 is unitless, being -log10 of a concentration expressed in mol/L.

Use the examples below as a reference point.
• O=c1[nH]c2ccc(Oc3ccc4[nH]c(=O)c(=O)[nH]c4c3)cc2[nH]c1=O [Tetrahydroquinoxalin analog, J] = 5.23
• O=C(N/C=N\c1cccnc1)C1COc2ccccc2O1 (stereo not drawn) = 4.72

Prompt: Entry CC(Oc1ccccc1)C(=O)Nc1ccc(Cl)cc1 (stereo not drawn) has what pIC50?
Response: 5.48

These entries and their values trace back to BindingDB's records for doi:10.1016/j.chembiol.2007.12.010.
